For each record, write down the corresponding max response.
- Tested on: NIH3T3
- EXPERIMENT: Cytotoxic Profiling of Annotated Libraries Using Quantitative High-Throughput Screening (AID 1296008); note: nearly all actives have a fitted effect of over 60% in size; for max response: % is set by controls: 0 for no effect and ±100 for the full control effect
- RECORDED CONDITIONS: Five cell lines viability, CellTiter-Glo ATP luminescence, 48-72 h; stronger effect = lower value
Results filed as inconclusive are left out.
Report the value in % with no unit label.

What does the data say about its max response? Entry: COc1cc(O)cc(C)c1C(=O)O[C@H]1[C@@H](OC(C)=O)[C@H](n2ccc(=O)[nH]c2=O)O[C@@H]1CO
0.716

Let us now turn to CCC(C)C(=O)OC1CC(C)C=C2C=CC(C)C(CCC(O)CC(O)CC(=O)O)C21 (stereo not drawn)
-8.16

Try the molecule O=C(O)c1ccc(CN2CCC(CN[C@@H]3C[C@H]3c3ccccc3)CC2)cc1
-26

====

- TESTED SYSTEM: Cytochrome P450 2C9 (Homo sapiens) (UniProt P11712)
- Sequence (P11712 whole entry, looked up): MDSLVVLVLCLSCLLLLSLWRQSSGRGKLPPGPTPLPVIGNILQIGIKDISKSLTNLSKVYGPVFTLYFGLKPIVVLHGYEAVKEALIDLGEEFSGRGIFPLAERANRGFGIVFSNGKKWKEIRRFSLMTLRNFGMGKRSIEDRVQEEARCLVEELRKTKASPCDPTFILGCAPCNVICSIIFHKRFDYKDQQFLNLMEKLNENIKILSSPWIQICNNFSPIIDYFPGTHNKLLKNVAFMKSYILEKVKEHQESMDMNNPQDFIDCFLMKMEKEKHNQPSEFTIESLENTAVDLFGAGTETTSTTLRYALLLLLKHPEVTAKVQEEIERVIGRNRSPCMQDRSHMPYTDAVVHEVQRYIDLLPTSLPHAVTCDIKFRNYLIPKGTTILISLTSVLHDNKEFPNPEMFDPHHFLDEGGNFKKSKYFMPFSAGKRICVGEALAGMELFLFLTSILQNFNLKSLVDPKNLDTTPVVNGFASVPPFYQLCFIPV
- EXPERIMENT: Cytochrome P450 family 2 subfamily C member 9 (CYP2C9) small molecule antagonists: luciferase biochemical (cell-free) qHTS assay (AID 1645842); note: nearly all actives have a fitted effect of over 55% in size
- RECORDED CONDITIONS: P450-Glo CYP2C9 enzyme assay, luciferin luminescence; series mostly up to 57.4 µM
Inconclusive results are not listed. Activity calls are given as the source filed them. Calls come from the whole dose curve; as a rule, active = well fitted inhibition curve with a large enough effect in the repeat runs; inconclusive = weak or mixed curves; inactive = no such curve, though single readings can be large or run the other way.
Just give me one of these, please: TRUE (active), FALSE (inactive)

// outcome(item) with item = CCCN1CCC(c2cccc(S(C)(=O)=O)c2)CC1
FALSE

Do the same for CC(C)S(=O)(=O)NC[C@H](C)c1ccc(NC(=O)c2cc(F)cc(F)c2)cc1 please
TRUE

Same thing, different compound: CC(C)(C)NCCCNC(=O)c1cccc(Br)c1
FALSE

Another compound: O=S(=O)(NC1CCC(c2cc(F)ccc2F)(S(=O)(=O)c2ccc(Cl)cc2)CC1)C(F)(F)F (stereo unspecified)
TRUE

Same question, O=C(Nc1ccccc1)N1CCN(Cc2ccc3ccccc3n2)CC1 this time
TRUE

Would you mind doing CNCc1ccc(-c2cc(-c3nc(-c4ccc(S(=O)(=O)C(C)C)cc4)cnc3N)on2)cc1 as well?
TRUE

====

- Test system: CRL-7250
- EXPERIMENT: Cytotoxic Profiling of Annotated Libraries Using Quantitative High-Throughput Screening (AID 1296008); note: nearly all actives have a fitted effect of over 60% in size; note: potency is the fitted concentration of half-maximal effect
- RECORDED CONDITIONS: Five cell lines viability, CellTiter-Glo ATP luminescence, 48-72 h
Results filed as inconclusive are left out. Calls of active or inactive are those of the source. Calls come from the whole dose curve; as a rule, active = well fitted inhibition curve with a large enough effect; inconclusive = small, poorly fitted or top-dose-only effect; inactive = flat fitted curve, though single readings scatter.
MEASURED ENDPOINT: Potency

For orientation, consider the following solved cases.
C[C@@H]1O[C@@H](O[C@@H]2[C@@H](O[C@@H]3O[C@@H](C)[C@H](O[C@@H]4OC[C@H](O)[C@H](O[C@@H]5OC[C@@H](O)[C@H](O)[C@H]5O)[C@H]4O)[C@@H](O[C@@H]4OC[C@](O)(CO)[C@H]4O)[C@H]3O)[C@H](OC(=O)[C@]34CCC(C)(C)C[C@H]3C3=CCC5[C@@]6(C)C[C@H](O)[C@H](O[C@@H]7O[C@H](CO[C@@H]8OC[C@H](O)[C@H](O)[C@H]8O)[C@@H](O)[C@H](O)[C@H]7O)C(C)(C)C6CC[C@@]5(C)[C@]3(C)C[C@H]4O)OC[C@H]2O)[C@H](O)[C@H](O)[C@H]1O (stereo partly specified) = inactive
CC[C@@](C)(Nc1ccnc(-c2c[nH]c3ncccc23)n1)C(=O)NCC(F)(F)F = inactive
O=C(Cc1ccc(-c2ccccc2)cc1)NC1CCC1 = inactive
C=C1CN(Cc2ccc(C(=O)Nc3ccccc3N)cc2)C(=O)c2ccccc21 = 2060 nM (active)
C[C@@H]1O[C@@H](O[C@@H]2[C@@H](O)[C@H](O[C@H]3CC[C@@]4(C)C(CC[C@]5(C)C4CC=C4[C@@H]6CC(C)(C)CC[C@]6(C(=O)O[C@@H]6O[C@H](CO)[C@@H](O)[C@H](O)[C@H]6O)CC[C@]45C)C3(C)C)O[C@H](C(=O)O)[C@H]2O)[C@H](O)[C@H](O)[C@H]1O (stereo partly specified) = inactive

# context switch: different compound, same Potency
What value of measured Potency is listed for O=S(=O)(NC1CCC(c2cc(F)ccc2F)(S(=O)(=O)c2ccc(Cl)cc2)CC1)C(F)(F)F (stereo unspecified) ?
inactive

====

- EXPERIMENT: Primary qHTS for inhibitors of nuclear receptor binding SET domain protein 2 (NSD2) in an RCH-ACV wild type WT cells (2C) (AID 1645877); note: nearly all actives have a fitted effect of over 70% in size
- RECORDED CONDITIONS: RCH-ACV (leukaemia line) NSD2 WT (2C) viability, CellTiter-Glo, 72 h; series mostly up to 44.9 µM
Results filed as inconclusive are left out. The source made the active and inactive calls. Calls come from the whole dose curve; as a rule, active = well fitted inhibition curve with a large enough effect; inconclusive = small, poorly fitted or top-dose-only effect; inactive = no such curve, though single readings can be large or run the other way.
Permitted responses: active, inactive

Could you please tell me the result logged for OC[C@H]1O[C@@H](OC(CCCCc2ccc(O)cc2)CCc2ccc(O)cc2)[C@H](O)[C@@H](O)[C@@H]1O (stereo not given in full) in this assay?
inactive

Also check Cc1ccccc1C#Cc1ccc(CCC(=O)O)cc1
inactive

Param item: CNS(=O)(=O)c1ccccc1Nc1nc(Nc2ccc(N3CCN(C)CC3)cc2OC)ncc1Cl
active

Query COc1cc2c(cc1OC)-c1[nH]nc(Nc3cccc(F)c3)c1C2 next
active

Query CCC(Nc1ncnc2nc[nH]c12)c1nc2cccc(F)c2c(=O)n1-c1ccccc1 (stereo not given) next
active

Note, next up: C/C=C(\C)C(=O)O[C@H]1[C@@H](O[C@]2(COC(=O)CC(C)C)O[C@H](COC(=O)C(C)CC)[C@@H](OC(C)=O)[C@@H]2O)O[C@H](COC(C)=O)[C@@H](O)[C@@H]1O (stereo not given in full)
inactive

Another compound: O=C(/C=C/c1ccccc1)OC[C@]12O[C@H]1[C@@H](O)[C@@H]1C=CO[C@@H](O[C@@H]3O[C@H](CO)[C@@H](O)[C@H](O)[C@H]3O)[C@@H]12
inactive

What do you get for CN(c1ccccc1CNc1nc(Nc2ccc3c(c2)CC(=O)N3)ncc1C(F)(F)F)S(C)(=O)=O ?
active

// query: CN1CCN(C(=O)c2ccc3cc(CCNc4ncnc5ccc(C#N)cc45)ccc3c2)CC1
active

Next up: COc1ccccc1NC(=O)OCC1CCN(C(=O)OC(C)(C)C)CC1
inactive

Another compound to check: COC(=O)C[C@H]1[C@]2(C)C3=C(C)[C@H](c4ccoc4)C[C@H]3O[C@@H]2[C@H](OC(C)=O)C2[C@](C)(C(=O)OC)C=CC(=O)[C@@]21C (stereo not given in full)
inactive

How about this compound: O=C1Nc2ccccc2C(O)(c2ccccc2)C1O (stereo not given)
inactive

Again, but for C[C@@H]1O[C@@H](OC[C@H]2O[C@@H](OC(CCCCc3ccc(O)cc3)CCc3ccc(O)cc3)[C@H](O)[C@@H](O)[C@@H]2O)[C@H](O)[C@H](O)[C@H]1O (stereo not given in full)
inactive

Please give the result for C/C1=C\CC[C@H](C)CCO[C@@H]2O[C@H](CO[C@@H]3OC[C@](O)(COC1=O)[C@H]3O)[C@@H](O)[C@H](O)[C@H]2O too.
inactive

Another compound to check: CCCCOC(=O)NC(=O)C1c2ccccc2Oc2ccccc21
inactive

====

- EXPERIMENT: Primary fluorescence-based thiol-reactive (MSTI) qHTS assay for identification of artifact compounds. (AID 1845221); note: nearly all actives have a fitted effect of over 65% in size
- RECORDED CONDITIONS: MSTI thiol-reactivity probe, 1 h; series mostly up to 53.8 µM
Inconclusive results are not listed. Activity calls are given as the source filed them. Calls come from the whole dose curve; as a rule, active = well fitted inhibition curve with a large enough effect; inconclusive = small, poorly fitted or top-dose-only effect; inactive = no such curve, though single readings can be large or run the other way. Where a SMILES comes first, the peptide text is derived from it. Bridges are numbered along the chain shown (N, C = ends). [ ]: non-standard residue; d: D form. NMeY = CN[CH](Cc1ccc(O)cc1)C(=O)O
Mark one answer only. Choices: label 1 for active, label 0 for inactive

Could you please tell me the result logged for C[C@@H]1CC[C@]2(C(=O)O)CC[C@]3(C)C(=CCC4[C@@]5(C)CC[C@H](O)C(C)(C)C5C(O)C[C@]43C)[C@@H]2[C@]1(C)O (stereo partly drawn) in this assay?
label 1

# repeat for CCN(Cc1cccnc1)C(=O)CN(c1ccc(OC)nc1)S(=O)(=O)c1ccccc1C
label 0

Now this one: Cc1cc(C(=O)N2Cc3cnn(C)c3Nc3ccccc32)ccc1CNC(=O)N1CCC[C@H]1C(=S)N1CCCN(C)CC1
label 0

Please give the result for CC1(C)CC2C(O)c3cocc3CC(C)(O)C2C1 (stereo not drawn) too.
label 0

Entry NC1CCC(Nc2cc(-c3cccc(NCc4cccc(F)c4)n3)c(Cl)cn2)CC1 (stereo not drawn) please
label 0

Further, for C[C@H]1[C@H](O)O[C@@H]2O[C@@]3(C)CC[C@H]4[C@H](C)CC[C@@H]1[C@@]24OO3 ?
label 0

Param item: Cc1ccc(-c2c(C(=O)CF)n(CCCO)c3ncnc(N)c23)cc1
label 0

Then this molecule: C[C@@H]1O[C@@H](OC[C@H]2O[C@@H](OC(CCCCc3ccc(O)cc3)CCc3ccc(O)cc3)[C@H](O)[C@@H](O)[C@@H]2O)[C@H](O)[C@H](O)[C@H]1O (stereo partly drawn)
label 1

Cool, now C[C@H]1CC(=O)Nc2cccc(-c3cnn(C(C)(C)C)c3)c2N1
label 0

One more molecule: CC1CCC2C(C(=O)O)=COC(O[C@@H]3O[C@H](CO)[C@@H](O)[C@H](O)[C@H]3O)C12 (stereo partly drawn)
label 1

Ok, now CCC(C)C1NC(=O)C2CCCN2C(=O)C(NC(C)=O)C(C)OC(=O)C(Cc2ccc(OC)cc2)N(C)C(=O)C2CCCN2C(=O)C(C(C)C)NC1=O (stereo not drawn) (Ac-TPIVP[NMeY](Me); ester 1-C; configuration not given here)
label 0

# iterate: CC1=CC(=O)C2(OC3OC(C)C(O)C(OC(=O)/C=C/c4ccccc4)C3O)C=COC(OC3OC(CO)C(O)C(O)C3O)C12 (stereo not drawn)
label 1

Then O=C(CCCCN1CCOCC1)Nc1ccc(-c2cccnc2)cc1 ?
label 0

How about NC(=O)C(CCC(F)(F)F)N(Cc1ccc(-c2ncon2)cc1F)S(=O)(=O)c1ccc(Cl)cc1 (stereo not drawn) ?
label 0

Note, next up: C#CCN(Cc1cc2c(=O)[nH]c(C)nc2cc1Br)c1ccc(C(=O)NCc2cccnc2)cc1
label 0

What about this molecule? O=C(O)c1ccccc1NC(=O)N1CCC(c2ccccc2C(F)(F)F)CC1
label 0

Check C[C@@H]1C[C@@H](O)[C@@]23CO[C@@H](O)[C@@H]2CCC[C@@H]3[C@@]12C[C@@H](c1ccoc1)OC2=O too.
label 0

And then CCc1cc(CN2CC(C(=O)O)C2)sc1-c1noc(-c2ccc(Oc3ccccc3)cc2)n1 , what is it?
label 0
